# Tested on: NCI-H1793
# experimentalDetails: relative viability (nuclei count vs DMSO), 5 days (fraction); higher = more cells survive
# experimentalSetup: first compound 8 µM
Define the label as Y when relative viability is strictly less than 0.4 and as N in all remaining cases.

# compound, category
records = [
    ("Nc1cccc2c1CN(C1CCC(=O)NC1=O)C2=O (configuration not stated) [Lenalidomide] + CCNC(=O)c1noc(-c2cc(C(C)C)c(O)cc2O)c1-c1ccc(CN2CCOCC2)cc1 [Luminespib] (partner 0.01 µM)", "Y"),
    ("Nc1cccc2c1CN(C1CCC(=O)NC1=O)C2=O (configuration not stated) [Lenalidomide] + CS(=O)(=O)N1CCN(Cc2cc3nc(-c4cccc5[nH]ncc45)nc(N4CCOCC4)c3s2)CC1 [Pictilisib] (partner 1 µM)", "Y"),
    ("Nc1cccc2c1CN(C1CCC(=O)NC1=O)C2=O (configuration not stated) [Lenalidomide] + CC(=O)Nc1cccc(-n2c(=O)n(C3CC3)c(=O)c3c(Nc4ccc(I)cc4F)n(C)c(=O)c(C)c32)c1 [Trametinib] (partner 0.02 µM)", "N"),
    ("Nc1cccc2c1CN(C1CCC(=O)NC1=O)C2=O (configuration not stated) [Lenalidomide] + O=C(c1cc(Cc2n[nH]c(=O)c3ccccc23)ccc1F)N1CCN(C(=O)C2CC2)CC1 [Olaparib] (partner 8 µM)", "N"),
    ("Nc1cccc2c1CN(C1CCC(=O)NC1=O)C2=O (configuration not stated) [Lenalidomide] + CC1(C)CCC(c2ccc(Cl)cc2)=C(CN2CCN(c3ccc(C(=O)NS(=O)(=O)c4ccc(N[C@H](CCN5CCOCC5)CSc5ccccc5)c(S(=O)(=O)C(F)(F)F)c4)cc3)CC2)C1 [Navitoclax] (partner 0.5 µM)", "Y"),
    ("Nc1cccc2c1CN(C1CCC(=O)NC1=O)C2=O (configuration not stated) [Lenalidomide] + C[C@]1(O)C[C@@H](c2nc(-c3ccc4ccc(-c5ccccc5)nc4c3)c3c(N)nccn32)C1 [Linsitinib] (partner 1 µM)", "N"),
]

====

Below, each entry is listed alongside its reported relative viability.
# System: NCI-H520
# experimentalDetails: relative viability (nuclei count vs DMSO), 5 days (fraction); higher = more cells survive
# experimentalSetup: first compound 0.06325 µM

# compound, relative viability
rows = [
    ("CCNC(=O)c1noc(-c2cc(C(C)C)c(O)cc2O)c1-c1ccc(CN2CCOCC2)cc1 [Luminespib] + Cc1nc(Nc2ncc(C(=O)Nc3c(C)cccc3Cl)s2)cc(N2CCN(CCO)CC2)n1 [Dasatinib] (partner 0.075 µM)", 0.151),
    ("CCNC(=O)c1noc(-c2cc(C(C)C)c(O)cc2O)c1-c1ccc(CN2CCOCC2)cc1 [Luminespib] + O=C(c1cc(Cc2n[nH]c(=O)c3ccccc23)ccc1F)N1CCN(C(=O)C2CC2)CC1 [Olaparib] (partner 8 µM)", 0.139),
    ("CCNC(=O)c1noc(-c2cc(C(C)C)c(O)cc2O)c1-c1ccc(CN2CCOCC2)cc1 [Luminespib] + CS(=O)(=O)CCNCc1ccc(-c2ccc3ncnc(Nc4ccc(OCc5cccc(F)c5)c(Cl)c4)c3c2)o1 [Lapatinib] (partner 2 µM)", 0.11),
    ("CCNC(=O)c1noc(-c2cc(C(C)C)c(O)cc2O)c1-c1ccc(CN2CCOCC2)cc1 [Luminespib] + CC(=O)Nc1cccc(-n2c(=O)n(C3CC3)c(=O)c3c(Nc4ccc(I)cc4F)n(C)c(=O)c(C)c32)c1 [Trametinib] (partner 0.02 µM)", 0.114),
]
